Test system: NCI-H226
Measurement notes: NCI tumour cell line growth inhibition, 48 h
Active and inactive are the calls of the source. No stated cut-off is given here; in the data, active = GI50 up to about 1.1 µM and inactive = higher.
Give your call using only these classes: active, inactive

Compound	System name	Assigned class
COc1ccc2c(c1)C1=NCCN(CCN(C)C)c3ccc([N+](=O)[O-])c(c31)N2	NCI-H226	inactive
COc1ccc2cc3[n+](cc2c1O)CCc1cc2c(cc1-3)OCO2 [BERBERRUBINE CHLORIDE]	NCI-H226	inactive
Cc1ccc2c(c1)[nH]c(=S)n2C=C1C(=O)CC(C)(C)CC1=O	NCI-H226	inactive
C[N+](C)(C)CC(=O)N/N=C(\C(=O)NC1=C(Cl)C(=O)c2ccccc2C1=O)C(C#N)c1nc(-c2ccc([N+](=O)[O-])cc2)cs1 (stereo unspecified)	NCI-H226	inactive
Cc1nc(-c2ccc(Cl)cc2)cn2c1nc1ccccc12	NCI-H226	inactive

# input for lookup
Would you mind telling me which call this test gave Cc1c(O)c(=O)ccn1CCN ?
inactive

###

System: NCI-H522
Measurement notes: NCI tumour cell line growth inhibition, 48 h
Calls of active or inactive are those of the source. No stated cut-off is given here; in the data, active = GI50 up to about 1.1 µM and inactive = higher.
Please reply with one of these outcomes: active, inactive

Sample answers from the record:
Molecule	Assigned class
O=C1/C(=C2/C(=O)N(c3ccccc3)c3ccccc32)Nc2ccccc21	inactive
Cc1c(N2CCOCC2)nc2ccc(Cl)cc2c1-c1ccccc1	inactive
C[C@]12CC[C@H](O)CC1=CC[C@@H]1C2CC[C@]2(C)C(=O)N(N)C(=O)CC12 (stereo partly specified)	inactive
CCOC(=O)c1c[nH]c2c(ccc3ncccc32)c1=O	inactive

For COc1ccccc1N1C(=O)CSC1c1cc(OC)c(OC)c(OC)c1 (stereo unspecified) , which call appears in the assay record?
inactive

Hi, sorry to bother you, what did the test record for O[C@]12CCCC[C@H]1CCC2 ?
inactive

Please state the recorded outcome for this molecule: CCOC(=O)NC(=O)c1cn(CCN2CCNCC2)c(=O)[nH]c1=O
inactive

For CC(C)C(C/C=C1\CC(CO)(COC(=O)C2CCCCC2)OC1=O)C(C)C (stereo unspecified) , which call appears in the assay record?
inactive

Name the outcome recorded for CC1CN1P1(N2CC2C)=NP(N2CC2C)(N2CC2C)=NP(N2CC2C)(N2CC2C)=N1 (stereo unspecified) in the assay.
inactive

Per the assay record, what outcome was assigned to O=C1c2ccsc2C(=O)c2sc(CO)cc21 ?
active

Dear all, I need the recorded test outcome for O=c1c2c3c(sc2nc2n1sc1nc4sc5c(c4c(=O)n12)CCCC5)CCCC3 , thank you.
inactive

###

Test system: RPMI-8226
Measurement notes: NCI tumour cell line growth inhibition, 48 h
Calls of active or inactive are those of the source. Cut-off read from the data, not from the text of the source: active = GI50 up to about 1.1 µM and inactive = higher.
Thanks in advance; please answer with one of these: 1 = active, -1 = inactive

Compound	Assigned class
COc1ccc2c(c1)C1=NCCN(CCN(C)C)c3ccc([N+](=O)[O-])c(c31)N2	1
COc1cc2c(/C=C3/C(=O)Nc4ccc(O)cc43)c(Cl)[nH]c2cc1C	1
COC(=O)C(Cc1cn(C(C)=O)c2ccccc12)P(=O)(OC)OC (stereo not given)	-1
O=C1OC2C(O)COC2(O)C1(O)C(C[N+](=O)[O-])c1ccc(Cl)cc1 (stereo not given)	1
COc1cc2c3c(c1OC)C(=O)C=C3N(S(=O)(=O)c1ccc(C)cc1)CC2	-1

Query: recorded result category for COC(=O)/C=C/c1ccc2nncnc2c1.COC(=O)/C=C\c1ccc2nncnc2c1 in this test
-1

So what was the verdict on Cc1ccc(C)c(NC(=O)/C(=N\N)C(c2cnc3ccc([N+](=O)[O-])cc3n2)[N+](=O)[O-])c1 (stereo not given) in this test?
-1

State the result this test recorded for CN(C)CCNC(=O)c1cc(NC(=O)c2cc(NC(=O)CC/C=C3/[C@@H]4CC[C@H]3N=N4)cn2C)cn1C .
-1
